Numbers sourced from patent US20200172483A1.

- Tested on: WT/R232 STING protein (Homo sapiens, UniProt Q86WV6, H232R)
- Sequence (Q86WV6 whole entry H232R): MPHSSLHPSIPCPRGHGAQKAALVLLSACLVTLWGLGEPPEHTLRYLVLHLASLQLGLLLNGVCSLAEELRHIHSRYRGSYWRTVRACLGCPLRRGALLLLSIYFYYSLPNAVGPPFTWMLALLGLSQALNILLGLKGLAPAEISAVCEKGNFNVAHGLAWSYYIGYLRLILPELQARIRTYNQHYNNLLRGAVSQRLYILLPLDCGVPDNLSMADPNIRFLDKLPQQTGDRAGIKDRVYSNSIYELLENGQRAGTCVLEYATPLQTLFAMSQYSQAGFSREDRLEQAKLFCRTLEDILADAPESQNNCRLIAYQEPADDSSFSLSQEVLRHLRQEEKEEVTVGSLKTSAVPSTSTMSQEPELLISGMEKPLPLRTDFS
- Protocol details: Luciferase reporter assay in HEK293T-hSTING-Luciferase cells (R232)
- Test parameters: 20 hr stimulation, EC50 range
pEC50: −log10 of the molar value.
Some molecules, each annotated with its measured pEC50.

Some solved entries appear below for comparison.
1) Cc1ncc(CN2C(=O)C(C)(C)c3ccc(C(=O)NCc4c(F)cc(F)cc4F)cc32)o1: < 5.00
2) Cc1nn(C)c(CN2C(=O)C(C)(C)c3ccc(C(=O)NCc4cc5cc(F)ccc5o4)cc32)c1F: ≥ 6.00
3) CC1(C)C(=O)N(Cc2cc(F)cc(F)c2)c2nc(C(=O)NCc3cc4ccccc4o3)ccc21: 5.00 to 6.00

Report measured pEC50 on WT/R232 STING protein (Homo sapiens, UniProt Q86WV6, H232R); entry: CC1(C)C(=O)N(Cc2c(F)cccc2Cl)c2cc(C(=O)NCc3c(F)cc(F)cc3F)ccc21
≥ 6.00

Enter recorded pEC50 with WT/R232 STING protein (Homo sapiens, UniProt Q86WV6, H232R) for CC1(C)C(=O)N(Cc2c(F)cccc2Cl)c2cc(C(=O)NCc3cc4cc([N+](=O)[O-])ccc4o3)ccc21 here.
5.00 to 6.00

* * *

- Tested on: hSTING (HAQ) (Homo sapiens, UniProt Q86WV6, G230A/H232R/R293Q/R71H)
- Sequence (Q86WV6 whole entry R71H/G230A/H232R/R293Q): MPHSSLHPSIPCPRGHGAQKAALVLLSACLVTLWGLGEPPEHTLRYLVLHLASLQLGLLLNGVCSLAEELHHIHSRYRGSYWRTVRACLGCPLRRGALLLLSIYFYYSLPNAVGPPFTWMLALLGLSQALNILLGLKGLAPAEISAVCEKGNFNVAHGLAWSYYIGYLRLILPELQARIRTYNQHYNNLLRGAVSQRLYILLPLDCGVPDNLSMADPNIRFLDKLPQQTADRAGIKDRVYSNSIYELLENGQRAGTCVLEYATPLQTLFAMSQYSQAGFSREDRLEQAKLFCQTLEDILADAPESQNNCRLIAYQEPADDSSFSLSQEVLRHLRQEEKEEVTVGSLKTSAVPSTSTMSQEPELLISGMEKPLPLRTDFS
- Protocol details: Luciferase reporter assay in HEK293T-hSTING-Luciferase cells (HAQ polymorph)
- Test parameters: EC50 range
pEC50: −log10 of the molar value.
Readout: pEC50

1) Cc1ccc(CNC(=O)c2ccc3c(c2)N(Cc2c(F)cccc2Cl)C(=O)C3(C)C)o1: 5.00 to 6.00
2) Cc1ccc(CNC(=O)c2ccc3c(c2)N(Cc2cccc(F)c2F)C(=O)C3(C)C)o1: 5.00 to 6.00
3) CC1(C)C(=O)N(Cc2c(F)cccc2OC(F)F)c2cc(C(=O)NCc3c(F)cc(F)cc3F)ccc21: ≥ 6.00

Report pEC50 for CC1(C)C(=O)N(Cc2c(F)cccc2Cl)c2cc(C(=O)NCc3ccc(F)cc3F)ccc21
≥ 6.00

State, in one line, measured pEC50 of COc1cc(F)cc(CN2C(=O)C(C)(C)c3ccc(C(=O)NCc4c(F)cc(F)cc4F)cc32)c1
≥ 6.00

Give the reported value of pEC50 for this record: CC1(C)C(=O)N(Cc2cccc(F)c2)c2cc(C(=O)NCc3c(F)cc(F)cc3F)ccc21
5.00 to 6.00

Answer with the recorded pEC50 for the molecule listed here: COc1cccc(CN2C(=O)C(C)(C)c3ccc(C(=O)NCc4c(F)cc(F)cc4F)cc32)c1F
5.00 to 6.00

* * *

- Tested on: WT/R232 STING protein (Homo sapiens, UniProt Q86WV6, H232R)
- Protocol details: Luciferase reporter assay in HEK293T-hSTING-Luciferase cells (R232)
- Test parameters: 20 hr stimulation, EC50 range
pEC50: −log10 of the molar value.
# maps each entry to its pEC50

Example entries and their recorded answers appear below.
1. Cc1nn(C)c(CN2C(=O)C(C)(C)c3ccc(C(=O)NCc4cc5cc(F)c(F)cc5o4)cc32)c1F [Example 114]: ≥ 6.00
2. COc1cccc(CN2C(=O)C(C)(C)c3ccc(C(=O)NCc4c(F)cc(F)cc4F)cc32)c1F [Example 104]: 5.00 to 6.00
3. CC1(C)C(=O)N(Cc2cccc(F)c2)c2cc(C(=O)NCc3ccco3)ccc21 [Example 42]: < 5.00
4. CC1(C)C(=O)N(Cc2cc(F)cc(F)c2)c2cc(C(=O)NCc3ccc(F)o3)ccc21 [Example 69]: 5.00 to 6.00

Please supply the value of reported pEC50 for the item CC1(C#N)C(=O)N(Cc2c(F)cccc2Cl)c2cc(C(=O)NCc3c(F)cc(F)cc3F)ccc21 (stereo not shown) [Example 166]
≥ 6.00

Tell me pEC50 reported for CC1(C)C(=O)N(Cc2nc3ccccc3o2)c2cc(C(=O)NCc3c(F)cc(F)cc3F)ccc21 [Example 101]
< 5.00

Entry O=C(NCc1c(F)cc(F)cc1F)c1ccc2c(c1)N(Cc1cc(F)cc(F)c1)C(=O)C2=O [Example 141] needs its pEC50 filled in; supply it.
< 5.00

# return recorded pEC50 for entry Cn1ncc2cccc(CN3C(=O)C(C)(C)c4ccc(C(=O)NCc5c(F)cc(F)cc5F)cc43)c21 [Example 96]
5.00 to 6.00

Look up and state reported pEC50 for CC1(C)C(=O)N(Cc2cccc(C(F)(F)F)c2)c2cc(C(=O)NCc3c(F)cc(F)cc3F)ccc21 [Example 17]
5.00 to 6.00

Please look at this compound and report its pEC50: CC1(C)C(=O)N(Cc2cc(F)cc(F)c2)c2c1ccc(C(=O)NCc1cc3ccccc3o1)c2F [Example 34]
< 5.00

Please supply the value of reported pEC50 for the item CC1(C)C(=O)N(Cc2cc(F)cc(F)c2)c2cc(C(=O)NCc3cc4ccccc4o3)ccc21 [Example 23]
≥ 6.00

Fill in pEC50 for record CC1(C)C(=O)N(Cc2c(F)cccc2Cl)c2cc(C(=O)NCc3ccc(N)cc3)ccc21 [Example 85]
5.00 to 6.00

* * *

- Tested on: hSTING (HAQ) (Homo sapiens, UniProt Q86WV6, G230A/H232R/R293Q/R71H)
- Protocol details: Luciferase reporter assay in HEK293T-hSTING-Luciferase cells (HAQ polymorph)
- Test parameters: EC50 range
pEC50: −log10 of the molar value.
Readout: pEC50

Solved entries:
1) CC1(C)C(=O)N(Cc2cccc(N=[N+]=[N-])c2)c2cc(C(=O)NCc3c(F)cc(F)cc3F)ccc21 [Example 57]: 5.00 to 6.00
2) CC1(C)C(=O)N(Cc2c(F)cccc2Cl)c2cc(C(=O)NCc3nc4ccccc4o3)ccc21 [Example 30]: 5.00 to 6.00
3) CC1(C)C(=O)N(Cc2cc(F)cc(F)c2)c2cc(C(=O)NCc3cc4ccccc4o3)ccc21 [Example 23]: 5.00 to 6.00
4) CCC1(OC)C(=O)N(Cc2c(F)cccc2Cl)c2cc(C(=O)NCc3c(F)cc(F)cc3F)ccc21 (stereo not drawn) [Example 161]: 5.00 to 6.00

Using the record for CC1(N=[N+]=[N-])C(=O)N(Cc2c(F)cccc2Cl)c2cc(C(=O)NCc3c(F)cc(F)cc3F)ccc21 (stereo not drawn) [Example 153] , state its measured pEC50.
5.00 to 6.00

Quick one: give measured pEC50 for Cc1cccc(CNC(=O)c2ccc3c(c2)N(Cc2cc(F)cc(F)c2)C(=O)C3(C)C)c1 [Example 4]
5.00 to 6.00

Return reported pEC50. Input compound: Cc1cc(CN2C(=O)C(C)(C)c3ccc(C(=O)NCc4c(F)cc(F)cc4F)cc32)nn1C [Example 81]
5.00 to 6.00

Quick one: give measured pEC50 for Cc1cccc(CN2C(=O)C(C)(C)c3ccc(C(=O)NCc4c(F)cc(F)cc4F)cc32)c1 [Example 18]
5.00 to 6.00

Query pEC50 for CC(C)C1(Cl)C(=O)N(Cc2c(F)cccc2Cl)c2cc(C(=O)NCc3c(F)cc(F)cc3F)ccc21 (stereo not drawn) [Example 157]
5.00 to 6.00

For CC1(C)CN(C(=O)Cc2ccccc2)c2cc(C(=O)NCc3c(F)cc(F)cc3F)ccc21 [Example 136] , write its pEC50.
5.00 to 6.00

Please look at this compound and report its pEC50: COc1cccc(F)c1CN1C(=O)C(C)(C)c2ccc(C(=O)NCc3c(F)cc(F)cc3F)cc21 [Example 102]
≥ 6.00

Return pEC50 (reported value) for this compound: CC1(Cl)C(=O)N(Cc2cc(F)cc(F)c2)c2cc(C(=O)NCc3c(F)cc(F)cc3F)ccc21 (stereo not drawn) [Example 148]
5.00 to 6.00

Find the measured pEC50 of Cc1nn(C)c(CN2C(=O)C(C)(C)c3ccc(C(=O)NCc4cc5ccccc5o4)cc32)c1Br [Example 112] and report it.
≥ 6.00

Note pEC50 for the compound shown: CC1(C)C(=O)N(Cc2ccccc2F)c2cc(C(=O)NCc3c(F)cc(F)cc3F)ccc21 [Example 6]
≥ 6.00

Report measured pEC50; entry is CC1(C)C(=O)N(Cc2cc(F)cc(F)c2)c2cc(C(=O)NCc3ccc(N=[N+]=[N-])cc3)ccc21 [Example 48]
5.00 to 6.00

For CC1(C)C(=O)N(Cc2c(F)cccc2Cl)c2cc(C(=O)NCc3cc4ccccc4o3)ccc21 [Example 36] , write its pEC50.
5.00 to 6.00

* * *

- Tested on: hSTING (HAQ) (Homo sapiens, UniProt Q86WV6, G230A/H232R/R293Q/R71H)
- Protocol details: Luciferase reporter assay in HEK293T-hSTING-Luciferase cells (HAQ polymorph)
- Test parameters: EC50 range
Reported EC50 values are given for each entry in this list.

Please report EC50 with hSTING (HAQ) (Homo sapiens, UniProt Q86WV6, G230A/H232R/R293Q/R71H) for item CC1(C)C(=O)N(Cc2cc(F)cc(F)c2)c2nc(C(=O)NCc3ccccc3)ccc21 [Example 191] .
1000 to 10000 nM

Look up and report EC50, with hSTING (HAQ) (Homo sapiens, UniProt Q86WV6, G230A/H232R/R293Q/R71H) as system, for CC1(C)C(=O)N(Cc2ccccc2)c2cc(C(=O)NCc3c(F)cc(F)cc3F)ccc21 [Example 11]
1000 to 10000 nM

Report EC50 from hSTING (HAQ) (Homo sapiens, UniProt Q86WV6, G230A/H232R/R293Q/R71H) testing of Cc1cccc(F)c1CN1C(=O)C(C)(C)c2ccc(C(=O)NCc3c(F)cc(F)cc3F)cc21 [Example 103]
≤ 1000 nM

Specify the recorded EC50 for Cc1ccc(CNC(=O)c2ccc3c(c2)N(Cc2c(C)cccc2F)C(=O)C3(C)C)o1 [Example 63] , system: hSTING (HAQ) (Homo sapiens, UniProt Q86WV6, G230A/H232R/R293Q/R71H).
1000 to 10000 nM

Provide EC50, recorded with hSTING (HAQ) (Homo sapiens, UniProt Q86WV6, G230A/H232R/R293Q/R71H), of Cc1cc(CN2C(=O)C(C)(C)c3ccc(C(=O)NCc4c(F)cc(F)cc4F)cc32)no1 [Example 70]
1000 to 10000 nM
